Reference for the values: paper PMC4045134

biological target: hABHD12 (Homo sapiens); construct: expressed in transfected cells; host or cells: HEK293 (transient); assay: Fluorescent glycerol assay of 1-AG hydrolysis in hABHD12-HEK293 lysates; format: biochemical; conditions: hABHD12-HEK293 lysates; read-out: max inhibition (converted)
Sequence (Q8N2K0 whole entry): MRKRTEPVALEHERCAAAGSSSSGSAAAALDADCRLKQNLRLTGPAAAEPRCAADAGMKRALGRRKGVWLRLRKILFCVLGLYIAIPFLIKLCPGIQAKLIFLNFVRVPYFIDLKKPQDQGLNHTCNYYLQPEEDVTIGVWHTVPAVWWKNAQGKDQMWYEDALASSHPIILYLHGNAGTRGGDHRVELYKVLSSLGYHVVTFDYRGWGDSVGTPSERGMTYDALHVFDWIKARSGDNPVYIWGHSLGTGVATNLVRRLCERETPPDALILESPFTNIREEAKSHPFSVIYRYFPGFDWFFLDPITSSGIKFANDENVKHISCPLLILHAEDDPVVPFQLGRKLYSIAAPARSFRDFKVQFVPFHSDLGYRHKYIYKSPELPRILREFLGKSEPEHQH
Response field class: string, computed from recorded Emax by ranges b0: < 60%; b1: ≥ 60% and < 90%; b2: ≥ 90%

Exam item: Could you place C=C(C)C1CCC2(C(=O)O)CCC3(C)C(CCC4C5(C)Cc6c([nH]c7ccccc67)C(C)(C)C5CCC43C)C12 (stereo not drawn) in its proper category? Many thanks.
Marked response: b1

Exam item: Same question for C=C(C)[C@@H]1CC[C@]2(C(=O)O)CC[C@]3(C)[C@H](CC[C@@H]4[C@@]5(C)Cc6cccnc6C(C)(C)[C@@H]5CC[C@]43C)[C@@H]12 please.
Marked response: b1

Exam item: Lookup C=C(C)[C@@H]1CC[C@]2(C(=O)O)CC[C@]3(C)[C@H](CC[C@@H]4[C@@]5(C)Cc6nccnc6C(C)(C)[C@@H]5CC[C@]43C)[C@@H]12
Marked response: b0

Exam item: Moving on to the next compound: C=C(C)[C@@H]1CC[C@]2(C(=O)O)CC[C@]3(C)[C@H](CC[C@@H]4[C@@]5(C)Cc6c[nH]nc6C(C)(C)[C@@H]5CC[C@]43C)[C@@H]12
Marked response: b2

Exam item: Moving on to the next compound: C=C(C)[C@@H]1CC[C@]2(C(=O)O)CC[C@]3(C)[C@H](CC[C@@H]4[C@@]5(C)Cc6c([nH]c7ccc(OC)cc67)C(C)(C)[C@@H]5CC[C@]43C)[C@@H]12
Marked response: b2

Exam item: What do you get for C=C(C)[C@@H]1CC[C@]2(C(=O)O)CC[C@]3(C)[C@H](CC[C@@H]4[C@@]5(C)CC(O)C(O)C(C)(C)[C@@H]5CC[C@]43C)[C@@H]12 (stereo partly drawn) [Compound 32, 2β,3β-Dihydroxylup-20(29)-en-28-oic acid] ?
Marked response: b2

Exam item: Follow-up item: C=C(C)[C@@H]1CC[C@]2(C=O)CC[C@]3(C)[C@H](CC[C@@H]4[C@@]5(C)CCC(=O)C(C)(C)[C@@H]5CC[C@]43C)[C@@H]12
Marked response: b0
